# Tested on: HCC 2998
# experimentSummary: NCI tumour cell line growth inhibition, 48 h
Counter-ions that a name gives are not always drawn. The source made the active and inactive calls. No stated cut-off is given here; in the data, active = GI50 up to about 1.1 µM and inactive = higher. Square brackets hold non-standard residues; d marks the D form. Peptide text beside a SMILES is read from it. * marks the point of attachment. X26 = COC1=CC(=O)N(C(=O)[C@@H](O*)C(C)C)[C@H]1Cc1ccccc1; NMeV = CN[C@H](C(=O)O)C(C)C; Hexanoyl = CCCCCC(=O)*

| compound | targetOfAssay | GI50 |
| --- | --- | --- |
| Cc1nnc2n1N=C(c1ccccc1)/C(=C/c1ccc(-c3ccc(Cl)cc3)o1)S2 | HCC 2998 | 7.19 µM (inactive) |
| CN(/N=C/c1ccccn1)C1=NCCCN1 | HCC 2998 | > 100 µM (inactive) |
| COc1cc(C(=O)C(CO)Oc2ccccc2OC)ccc1O (stereo not given) | HCC 2998 | > 100 µM (inactive) |
| O=C(NCCCCNc1cccccc1=O)OCc1ccccc1 | HCC 2998 | > 100 µM (inactive) |
| CC(C)OP(=O)(OC(C)C)/C(=N/Nc1ccc([N+](=O)[O-])cc1)Nc1ccccc1 | HCC 2998 | 49.5 µM (inactive) |
| C=CC[C@]12C[C@@H](C(=O)OC)N(C(=O)OC)[C@H]1N(S(=O)(=O)c1ccccc1)c1ccccc12 | HCC 2998 | 44.2 µM (inactive) |
| Oc1ncnc2c1CCCN2 | HCC 2998 | > 100 µM (inactive) |
| CC1=NN(c2ccccc2)C(=O)C1=C1SCCCS1 | HCC 2998 | 37 µM (inactive) |
| CC(C)(CCC(C)(C)N1OC1c1ccccc1)N1OC1c1ccccc1 (stereo not given) | HCC 2998 | 31.9 µM (inactive) |
| COc1ccccc1/N=C(\N)N/N=C/c1c[nH]c2ccccc12 | HCC 2998 | 2.55 µM (inactive) |
| CO/C=C/c1cc2c(cc1C(OC)OC)OCO2 | HCC 2998 | > 100 µM (inactive) |
| N#Cc1c(-c2ccc(Cl)cc2)c2c(n(C3OC(CO)C(O)C(O)C3O)c1=S)CCC2 (stereo not given) | HCC 2998 | 19.8 µM (inactive) |
| O=C1CC2(CCC(O)(c3ccccc3)C(C(=O)c3ccccc3)C2)C(=O)c2ccccc2N1 (stereo not given) | HCC 2998 | > 100 µM (inactive) |
| Clc1ccc(COc2ccccc2/C=N/c2c(-c3ccco3)nc3ccccn23)c(Cl)c1 | HCC 2998 | 95.9 µM (inactive) |
| COc1c(OC)c(OC)c2c(=O)cc(-c3ccc(OC(C)C)cc3)oc2c1OC | HCC 2998 | 28.4 µM (inactive) |
| CCc1cc2c(oc3cc4ccccc4cc32)c(=O)[nH]1 | HCC 2998 | > 10 µM (inactive) |
| CN(C)CCC=C1c2ccccc2C=Cc2ccccc21 [CYCLOBENZAPRINE HYDROCHLORIDE] | HCC 2998 | 5.4 µM (inactive) |
| O=c1ccc2c(Cl)cccc2o1 | HCC 2998 | 3.74 µM (inactive) |
| N=C1CSC2=NC3=C(CCC/C3=C\c3ccccc3)C(c3ccccc3)N12 (stereo not given) | HCC 2998 | 3.31 µM (inactive) |
| CCCCCC(=O)N[C@H](C(=O)N[C@H](C(=O)N(C)[C@H](C(=O)N1CCC[C@H]1C(=O)N1CCC[C@H]1C(=O)O[C@H](C(=O)N1C(=O)C=C(OC)[C@@H]1Cc1ccccc1)C(C)C)C(C)C)C(C)C)C(C)C (Hexanoyl-VV[NMeV]PP-X26) | HCC 2998 | > 100 µM (inactive) |

* * *

# Test system: CAKI-1
# experimentSummary: NCI tumour cell line growth inhibition, 48 h
Active and inactive are the calls of the source. Cut-off read from the data, not from the text of the source: active = GI50 up to about 1.1 µM and inactive = higher.
Classes used: active, inactive

| molecule | answerLabel |
| --- | --- |
| Cc1ccc(NC(=O)c2c(C)nc(=O)n3c2N(/N=C/c2ccc(Cl)cc2)CC3)cc1 | inactive |
| CC(C)(Oc1ccc2c(=O)cc(-c3ccccc3)oc2c1)C(=O)Nc1c(Cl)cccc1Cl | inactive |
| CCCn1c(=O)c2nn3c(=O)n(CCC)c(=O)c3nn2c1=O | inactive |
| CCOC(=O)c1cn2c(n1)sc1c(Cl)c(Cl)ccc12 | inactive |
| COc1cc(/C=C/c2sc3ccccc3[n+]2C)ccc1N(C)C | inactive |
| NCCCN1c2ccccc2Sc2ccc(Cl)cc21 | inactive |
| CCOC(=O)NC(C(=O)OCC)(N1CCN(c2cc3c(cc2F)c(=O)c(C(=O)O)cn3CC)CC1)C(F)(F)F (configuration not stated) | inactive |
| Clc1ccccc1/C=C/c1nsc(/C=C/c2ccccc2Cl)n1 | inactive |
| Nc1nc2c(nnn2C2C=C(CO)C(O)C2O)c(=O)[nH]1 (configuration not stated) | inactive |
| Oc1ccc([I+]c2ccccc2)cc1O | inactive |
| CC1=C(C(=O)Nc2ccc([N+](=O)[O-])cc2)C(c2ccc(N(C)C)cc2)C(C(=O)Nc2ccc([N+](=O)[O-])cc2)=C(C)N1 | inactive |
| Cc1ccc(-c2cc(N)n(-c3nc4c([nH]3)c(=O)n(C)c(=O)n4C)n2)cc1 | active |
| COC(=O)C1CC2c3c(c4ccccc4n3C)CC(C1=O)N2C (configuration not stated) | inactive |
| N#C/C(=C/Sc1ccccc1)C(=O)O | inactive |
| O=C(NNCc1ccc(Cl)cc1)Nc1cccc2ccccc12 | inactive |
| CC(C)C1CC[C@@H](C)C[C@@]1(O)CC(N)=O (some centres not stated) | inactive |
| CC(=O)OCC1OC(c2nc3ccccc3s2)=CC(OC(C)=O)C1OC(C)=O (configuration not stated) | inactive |
| O=C(c1cc2c(c3ccccc13)NC1(CCCCC1)N=C2C(F)(F)F)C(F)(F)F | inactive |
| CCOC(=O)C1C(c2ccc(OC)cc2)c2c(nn(-c3ccccc3)c2O)CC1(O)OCC (configuration not stated) | inactive |
| COc1cc(C2C(Cl)C(=O)N2NC(=O)c2ccc(NC(C)=O)cc2)ccc1O (configuration not stated) | inactive |
| CC(=O)c1cccc(Nc2c3ccccc3nc3occc23)c1 | inactive |
| COc1ccc2nc3cc(Cl)ccc3c(NCCCN(Cc3cc(OC)c(OC)c(OC)c3)Cc3cc(OC)c(OC)c(OC)c3)c2c1 | inactive |

* * *

# Tested on: U-251
# experimentSummary: NCI tumour cell line growth inhibition, 48 h
Active and inactive are the calls of the source. No stated cut-off is given here; in the data, active = GI50 up to about 1.1 µM and inactive = higher.

| molecule | GI50 |
| --- | --- |
| O=C(NCCCCNc1cccccc1=O)OCc1ccccc1 | > 100 µM (inactive) |
| COc1ccc(/N=C\c2ccc(N(CCC#N)CCC#N)cc2)cc1 | > 83.2 µM (inactive) |
| CCN(CC)CCSc1nc(-c2c[nH]c3nc(C)ccc3c2=O)n[nH]1 | > 100 µM (inactive) |
| C#Cc1c(C)c(/C=C/C(C)=C/C(=O)OC)n(C)c1C | > 100 µM (inactive) |
| C=C1C(=O)OC2C1CC[C@H](C)C13OC(=O)CC1[C@@]23C (stereo partly specified) | > 100 µM (inactive) |
| COc1ccc2nc3n(c2c1)C(c1c(F)cccc1Cl)SC3 (stereo unspecified) | > 100 µM (inactive) |
| COC(=O)C(C(=O)C(=O)Nc1cccc(OC)c1)c1cnc2ccccc2n1 (stereo unspecified) | > 100 µM (inactive) |
| COC(=O)c1ccc(Cc2ccc(C(=O)OC)o2)o1 | > 378 µM (inactive) |
| N#Cc1ccc(/N=N/N2CCCC2)cc1 | > 100 µM (inactive) |
| COc1cc2c(cc1OC)C1C(O)C(OC)C=C3CC[N+](C)(C2)C31 (stereo unspecified) | > 100 µM (inactive) |
| COCO[C@@H]1C[C@H]2C(=O)Nc3ccccc3C(=O)N2C1 | 45.7 µM (inactive) |

* * *

# System: OVCAR-8
# experimentSummary: NCI tumour cell line growth inhibition, 48 h
Counter-ions that a name gives are not always drawn. Activity calls are given as the source filed them. Cut-off read from the data, not from the text of the source: active = GI50 up to about 1.1 µM and inactive = higher.
Classes used: active, inactive

| compound | answerLabel |
| --- | --- |
| CN(C)CCC=C1c2ccccc2C=Cc2ccccc21 [CYCLOBENZAPRINE HYDROCHLORIDE] | inactive |
| CC1OC(O[C@H]2CC[C@]3(C)[C@H]4CC=C5[C@@H]6[C@@H](C)[C@H](C)CC[C@]6(C(=O)O)CC[C@@]5(C(=O)O)[C@]4(C)CC[C@H]3C2(C)C)C(O)C(O)C1O (stereo partly specified) | inactive |
| CC(=O)OCC1OC(OC2CC3C(C)(C)C(O)CC[C@]3(C)C3CCC45CC4(CCC5[C@@H](C)CC(O)C(O)C(C)(C)O)[C@]23C)C(O)C(O)C1O (stereo partly specified) | inactive |
| COc1c(OC)c(OC)c2c(=O)cc(-c3ccc(OC(C)C)cc3)oc2c1OC | inactive |
| O=C(/C=C/c1ccsc1)c1ccco1 | inactive |
| Cc1cc(C)n(CN(CCCCO)Cn2nc(C)cc2C)n1 | inactive |
| COc1ccc2c(C)cc(N/N=C/c3ccc(C)s3)nc2c1 | inactive |
| Cc1cccc2sc(NC(=O)c3cc([N+](=O)[O-])ccc3Cl)nc12 | inactive |
| COc1ccccc1Cn1nc(OC)c2cc([N+](=O)[O-])ccc21 | inactive |
| NCCCN1c2ccccc2Sc2ccc(Cl)cc21 | inactive |
| CC(=O)Nc1ccc(C2CC(c3ccc([N+](=O)[O-])cc3)=Nc3ccccc3[S+]2[O-])cc1 (stereo unspecified) | inactive |
| O=c1[nH]c(Cc2ccccc2)nc2c1sc1nc3ccccc3n12 | inactive |
| O=C1C=CC(=O)c2c1ccc1c3ccccc3n(CCCCCCCCn3c4ccccc4c4ccc5c(c43)C(=O)C=CC5=O)c21 | inactive |
| O=c1c2cccc3cccc(c4n1CCN=4)c32 | inactive |
| Clc1ccccc1/C=C/c1nsc(/C=C/c2ccccc2Cl)n1 | inactive |
| O=C1C=CC(=O)N1c1ccc2c(c1)Cc1cc(NC(=O)C(F)(F)F)ccc1-2 | inactive |
| Cc1cc(C)n(CN(Cn2nc(C)cc2C)c2ccccc2)n1 | inactive |
| CC(C)(C)c1cc(C2NCCO2)cc(C(C)(C)C)c1O (stereo unspecified) | inactive |
| O=C1Nc2ccccc2/C1=C1\C(=O)Nc2ccccc21 | inactive |
| COc1cc2c3c(c1)CCCN3CCC2 | inactive |
| Cc1cnc2[nH]c(-c3ccccc3)cc(=O)c2c1 | active |
